- Target: CDK2/CycE (Homo sapiens (Human), UniProt P24941)
- Method Summary: CDK2/CycE kinase assay (TR-FRET)
- Format: biochemical
- Condition Info: Method 2
Please provide measured IC50 for the entries that follow.
Express the result in nM but write the number alone.

Q: Any idea what IC50 was measured for CS(=N)(=O)Cc1cccc(Nc2ncnc(-c3cccc4c3OCC4)n2)c1 (racemic) [Example 34] ?
A: 2200

Q: Same read-out for COc1cc(Cl)ccc1-c1ncnc(Nc2cccc(CS(C)(=N)=O)c2)n1 (racemic) [Example 12] ?
A: 6800

Q: Same read-out for [2H]c1c([2H])c([2H])c(C([2H])([2H])Oc2cc(F)ccc2-c2ncnc(Nc3cccc(CS(C)(=N)=O)c3)n2)c([2H])c1[2H] (racemic) ?
A: 220

Q: Same read-out for CCOC(=O)N=S(C)(=O)Cc1cccc(Nc2ncnc(-c3ccccc3OCc3ccc(F)cc3)n2)c1 (racemic) ?
A: 1600

Q: Same read-out for CCOC(=O)N=S(C)(=O)Cc1cc(F)cc(Nc2ncnc(-c3ccc(F)cc3OC)n2)c1 (racemic) ?
A: 430

Q: Same read-out for COc1cc(F)ccc1-c1ncnc(Nc2cccc(CS(C)(=O)=NC#N)c2)n1 (racemic) [Example 48] ?
A: 630

###

- Target: CDK9/CycT1 (Homo sapiens (Human), UniProt P50750)
- Sequence (P50750 whole entry): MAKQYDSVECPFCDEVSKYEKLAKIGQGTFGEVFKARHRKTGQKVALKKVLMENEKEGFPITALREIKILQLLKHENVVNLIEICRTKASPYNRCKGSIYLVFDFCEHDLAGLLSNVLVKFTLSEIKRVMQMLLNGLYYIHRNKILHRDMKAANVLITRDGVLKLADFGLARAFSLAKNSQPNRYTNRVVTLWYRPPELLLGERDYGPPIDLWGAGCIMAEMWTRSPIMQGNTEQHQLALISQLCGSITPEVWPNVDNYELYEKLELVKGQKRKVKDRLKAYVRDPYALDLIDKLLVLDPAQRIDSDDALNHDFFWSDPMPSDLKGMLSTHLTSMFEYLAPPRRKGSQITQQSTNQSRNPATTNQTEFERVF
- Sequence (O60563 whole entry partner): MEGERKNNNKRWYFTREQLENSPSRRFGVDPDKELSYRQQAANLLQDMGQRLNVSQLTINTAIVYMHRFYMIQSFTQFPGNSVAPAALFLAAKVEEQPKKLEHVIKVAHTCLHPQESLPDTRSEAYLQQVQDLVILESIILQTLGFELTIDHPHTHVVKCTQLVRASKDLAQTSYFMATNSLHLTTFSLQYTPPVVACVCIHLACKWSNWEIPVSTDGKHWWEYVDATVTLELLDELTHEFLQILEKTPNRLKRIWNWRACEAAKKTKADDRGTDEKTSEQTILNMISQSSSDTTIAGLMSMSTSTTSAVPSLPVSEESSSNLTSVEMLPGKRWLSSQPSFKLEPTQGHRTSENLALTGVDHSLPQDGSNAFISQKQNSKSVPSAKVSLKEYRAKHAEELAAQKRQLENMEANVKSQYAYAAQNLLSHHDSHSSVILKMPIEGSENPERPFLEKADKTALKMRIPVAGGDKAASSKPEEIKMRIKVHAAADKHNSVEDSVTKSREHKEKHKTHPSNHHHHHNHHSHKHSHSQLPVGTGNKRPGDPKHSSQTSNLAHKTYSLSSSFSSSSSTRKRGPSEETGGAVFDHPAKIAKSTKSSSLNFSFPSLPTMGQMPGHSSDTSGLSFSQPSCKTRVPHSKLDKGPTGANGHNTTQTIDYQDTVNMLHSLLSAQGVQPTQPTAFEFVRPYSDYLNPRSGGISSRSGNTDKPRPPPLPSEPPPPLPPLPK
- Method Summary: CDK9/CycT1 kinase assay (TR-FRET)
- Type: biochemical
- Condition Info: Method 1
- Description: 1. CDK9/CycT1 Kinase Assay: CDK9/CycT1—inhibitory activity of compounds of the present invention was quantified employing the CDK9/CycT1 TR-FRET assay as described in the following paragraphs: Recombinant full-length His-tagged human CDK9 and CycT1, expressed in insect cells and purified by Ni-NTA affinity chromatography, were purchased from Invitrogen (Cat. No PV4131). As substrate for the kinase reaction biotinylated peptide biotin-Ttds-[…]
Measured Metric: pIC50
A value of pIC50 is the negative decimal logarithm of a concentration given in moles per litre.

Q: Any idea what pIC50 was measured for CS(=N)(=O)Cc1cccc(Nc2ncnc(-c3ccc(F)cc3OCC3CCCCC3)n2)c1 (racemic) ?
A: 8.00

Q: Same read-out for COc1cc(Cl)ccc1-c1ncnc(Nc2cccc(CS(C)(=N)=O)c2)n1 (racemic) [Example 12] ?
A: 7.13

Q: Same read-out for CS(=N)(=O)Cc1cccc(Nc2ncnc(-c3ccc(F)cc3OCc3ccon3)n2)c1 (racemic) ?
A: 8.15

Q: Same read-out for C/C=C\COc1cc(F)ccc1-c1ncnc(Nc2cccc(CS(C)(=N)=O)c2)n1 (racemic) ?
A: 8.15

Q: Same read-out for CN=S(C)(=O)Cc1cccc(Nc2ncnc(-c3ccc(F)cc3OC)n2)c1 (racemic) ?
A: 7.44

Q: Same read-out for COc1cc(F)ccc1-c1ncnc(Nc2ccc(Cl)c(CS(C)(=N)=O)c2)n1 (racemic) [Example 59] ?
A: 7.59

###

- Target: CDK2/CycE (Homo sapiens (Human))
- Method Summary: CDK2/CycE kinase assay (TR-FRET)
- Format: biochemical
- Condition Info: Method 2
- Text: 2. CDK2/CycE Kinase Assay: CDK2/CycE—inhibitory activity of compounds of the present invention was quantified employing the CDK2/CycE TR-FRET assay as described in the following paragraphs: Recombinant fusion proteins of GST and human CDK2 and of GST and human CycE, expressed in insect cells (Sf9) and purified by Glutathion-Sepharose affinity chromatography, were purchased from ProQinase GmbH (Freiburg, Germany). As substrate for the kinase reaction biotinylated peptide biotin-Ttds-[…]
Measured Metric: IC50 (nM)
Express the result in nM but write the number alone.

Q: Please tell me: IC50 of CS(=N)(=O)Cc1cccc(Nc2ncnc(-c3ccc(F)cc3OCC(F)F)n2)c1 (racemic) [Example 95] , system CDK2/CycE (Homo sapiens (Human))?
A: 1800

Q: Same read-out for COc1cc(F)c(F)cc1-c1ncnc(Nc2cccc(CS(C)(=N)=O)c2)n1 (racemic) [Example 10] ?
A: 1300

Q: Same read-out for COc1cc(F)ccc1-c1ncnc(Nc2cc(F)cc(CS(C)(=N)=O)c2)n1 (single isomer, unassigned) [Example 53] ?
A: 540
